pIC50: −log10 of the molar value.
Across several publications, the following pIC50 results were reported for Histone deacetylase 1 (Homo sapiens).

Worked cases, pIC50 given:
{"columns": ["compound-structure", "assayed-target", "pIC50"],
 "data": [
  ["Nc1ccccc1NC(=O)CCCCc1cn(CB2C=Cc3ccccc3N2)nn1", "Histone deacetylase 1 (Homo sapiens)", "< 4.46"],
  ["Nc1cc(F)ccc1NC(=O)CCc1cn(CB2C=Cc3ccccc3N2)nn1", "Histone deacetylase 1 (Homo sapiens)", "< 4.46"],
  ["O=C(CCCCc1cn(CB2C=Cc3ccccc3N2)nn1)NO", "Histone deacetylase 1 (Homo sapiens)", "< 4.46"],
  ["CCCCCCCCCNNC(=O)c1ccc(CNC(=O)c2ccccc2)cc1", "Histone deacetylase 1 (Homo sapiens)", "< 5.00"],
  ["O=C(CCC(=O)c1ccc(-n2ncc(-c3ccc([N+](=O)[O-])cc3)n2)cc1)NO", "Histone deacetylase 1 (Homo sapiens)", 4.68],
  ["Nc1ccccc1NC(=O)c1cn(CB2C=Cc3ccccc3N2)nn1", "Histone deacetylase 1 (Homo sapiens)", "< 4.46"],
  ["Nc1ccccc1NC(=O)CCCCCCC(=O)OCB1C=Cc2ccccc2N1", "Histone deacetylase 1 (Homo sapiens)", 5.09],
  ["Nc1ccccc1NC(=O)CCCc1cn(CB2C=Cc3ccccc3N2)nn1", "Histone deacetylase 1 (Homo sapiens)", "< 4.46"]
]}

Ask: Requested read-out: pIC50. Entry: `Nc1cc(F)ccc1NC(=O)CCCCc1cn(CB2C=Cc3ccccc3N2)nn1`
Reply: < 4.46

Ask: Requested read-out: pIC50. Entry: `O=C(NO)c1cccc(C(=O)OCB2C=Cc3ccccc3N2)c1`
Reply: 5.73

Ask: Requested read-out: pIC50. Entry: `O=C(/C=C/c1ccc(O)c(O)c1)OCCc1ccccc1`
Reply: 4.66

Ask: Requested read-out: pIC50. Entry: `O=C(NO)c1ccc(Cn2c(=O)n(CCc3ccc(NCCOCCOCCNc4ccc(CCn5c(=O)c6ccccc6n(Cc6ccc(C(=O)NO)cc6)c5=O)cc4)cc3)c(=O)c3ccccc32)cc1`
Reply: 5.02

Ask: Requested read-out: pIC50. Entry: `O=C(CCc1cn(CB2C=Cc3ccccc3N2)nn1)NO`
Reply: < 4.46
